Experiment: SU-DIPG-VI glioma cell viability, MIPE4.0 library, CellTiter-Glo luminescence, qHTS (AID 1347066);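 note: cells exposed to compound for 48 hours before readout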
Conditions: CellTiter-Glo ATP luminescence
Records with an inconclusive call do not appear. The source made the active and inactive calls. No cut-off is given here; in the data, nearly all actives have AC50 up to about 30 µM.
Hi there, use one of these labels in your reply, thanks! label 1 for active, label 0 for inactive

Answered examples (5):
COC(=O)Nc1nc2ccc(C(=O)c3ccccc3)cc2[nH]1 | label 0
OCCN1C[C@H](O)[C@@H](O)[C@H](O)[C@H]1CO | label 0
CC(=O)O[C@]1(C(C)=O)CC[C@H]2[C@@H]3C=C(C)C4=CC(=O)CC[C@]4(C)[C@H]3CC[C@@]21C | label 0
CN(C)c1ccc(O)c2c1C[C@H]1C[C@H]3[C@H](N(C)C)C(=O)C(C(N)=O)=C(O)[C@@]3(O)C(=O)C1=C2O | label 0
CCCCCCNC(=O)n1cc(F)c(=O)[nH]c1=O | label 0

Continue with the next compound.
Lab log entry: `COc1cc2nc(N3CCN(C(=O)c4ccco4)CC3)nc(N)c2cc1OC` — outcome as called in the assay?
label 1

----------
I'd be grateful if you could share measured liver cell % of control for these entries.
Experiment: kinase inhibitors against Plasmodium liver-stage infection, cell-based, known kinase inhibitor set, luminescence, hepatoma host viability (AID 624392);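 note: infected cells incubated roughly two days before readout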
Details: Plasmodium liver stage in hepatoma cells, luciferase luminescence, concentration not given here; measured here: host liver cell viability
Numbers only, in %.

Below: 5 compounds and their reported liver cell % of control.
O=C1NC(=NCCc2ccccc2F)SC1=Cc1ccc2ncccc2c1 | 108
Cc1ccc2c(c1)c(C1=C(c3cn(C)c4ccccc34)C(=O)NC1=O)cn2C | 83
COc1ccccc1CCN=C1NC(=O)C(=Cc2ccc3ncccc3c2)S1 | 109
CCCNc1cccc(-n2ncc3c(N/N=C/c4ccncc4)ncnc32)c1 | 95.8
Nc1nc(-c2cccc(Cl)c2)c(-c2ccc3ncccc3n2)s1 | 156

For each entry beneath this line, provide reported liver cell % of control.
1. Cc1ccc(C)c(C2=C(c3cn(C)c4ccccc34)C(=O)NC2=O)c1
2. CNC(=O)c1sc(-n2cnc3cc(OC)c(OC)cc32)cc1OCc1ccccc1C(F)(F)F
3. Fc1ccc(-c2c(-c3ccncc3)[nH]c3nccnc23)cc1
4. COc1cc2ncn(-c3cc(OCc4ccccc4C(F)(F)F)c(C(C)=O)s3)c2cc1OC

166
124
183
97.8

For each entry beneath this line, provide reported liver cell % of control.
1. Cn1cc(C2=C(c3cn(CCCCCN)c4ccccc34)C(=O)NC2=O)c2ccccc21
2. CS(=O)(=O)CCNCc1ccc(-c2ccc3ncnc(Nc4ccc(OCc5ccccc5)c(Br)c4)c3c2)o1

1. 105
2. 107

For each entry beneath this line, provide reported liver cell % of control.
1. CN1CCN(CCCNc2nc3ccc(Oc4ccc(NC(=O)Nc5cc(C(F)(F)F)ccc5F)cc4)cc3[nH]2)CC1
2. CCS(=O)(=O)c1ccc(OC)c(Nc2ncc(-c3ccccc3Cl)o2)c1

1. 95.2
2. 160

For each entry beneath this line, provide reported liver cell % of control.
1. c1cc(-c2cnn3nc(N4CCOCC4)ccc23)nc(NC2CC2)n1
2. CC(=O)NC(Cc1ccc(OP(=O)(O)O)cc1)C(=O)NC1CCC(=O)N2CCCC(C(=O)NCc3cccc4ccccc34)N2C1=O (stereo not given)

1. 147
2. 98.5

----------
Test: kinase inhibitors against Plasmodium liver-stage infection, cell-based, known kinase inhibitor set, luminescence, hepatoma host viability (AID 624392);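 note: infected cells incubated roughly two days before readout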
Conditions: Plasmodium liver stage in hepatoma cells, luciferase luminescence, concentration not given here
Active and inactive are the calls of the source. The rule behind the calls is not given here.
Hi there, use one of these labels in your reply, thanks! 1 (active), -1 (inactive)

Answered examples (2):
NCc1ccc(-n2c(-c3nonc3N)nc3cnccc32)cc1 | -1
Fc1ccc(-c2c(-c3ccncc3)[nH]c3cccnc23)cc1 | 1

Lab log entry: CCN1CCC(CC(=O)NC2NNC3NNC(c4cccc(F)c4F)CC32)CC1 (configuration not stated) — outcome as called in the assay?
-1

Lab log entry: `O=C1NC(=O)C(c2ccccc2)=C1Nc1ccccc1` — outcome as called in the assay?
-1

Lab log entry: `Cc1ccc(O)cc1Nc1ccnc2ccc(S(C)(=O)=O)cc12` — outcome as called in the assay?
-1

Lab log entry: `O=C1NC(=O)C(c2c[nH]c3ccccc23)=C1c1c[nH]c2ccccc12` — outcome as called in the assay?
-1

Lab log entry: `Cn1cc(C2=C(c3cn(CCN)c4ccccc34)C(=O)NC2=O)c2ccccc21` — outcome as called in the assay?
-1

Lab log entry: `Cn1cc(C2=C(c3cccc(N)c3)C(=O)NC2=O)c2ccccc21` — outcome as called in the assay?
-1

Lab log entry: `Nc1c(C(=O)c2cccc(-c3cccnc3)c2)cnn1-c1ccc(F)cc1F` — outcome as called in the assay?
-1

Lab log entry: `O=C1NC(=O)C(=Cc2ccc3ncccc3c2)S1` — outcome as called in the assay?
-1

Lab log entry: `Cn1cc(C2=C(c3ccccc3[N+](=O)[O-])C(=O)NC2=O)c2ccccc21` — outcome as called in the assay?
-1

Lab log entry: `COc1ccccc1Oc1nccc(-c2c(-c3ccc(F)cc3)ncn2C2CCNCC2)n1` — outcome as called in the assay?
-1

Lab log entry: `OCCCNc1nccc(-c2c(-c3ccc(F)cc3)nn3cc(C(F)(F)F)ccc23)n1` — outcome as called in the assay?
-1

Lab log entry: `COc1cc(F)c(F)c(F)c1C(=O)c1cnc(NC2CCN(S(C)(=O)=O)CC2)nc1N` — outcome as called in the assay?
-1

Lab log entry: `Nc1nc(-c2ccccn2)c(-c2ccc3ncccc3n2)s1` — outcome as called in the assay?
-1

Lab log entry: `Cn1cc(C2=C(c3cn(C)c4ccc(Cl)cc34)C(=O)NC2=O)c2ccccc21` — outcome as called in the assay?
-1

Lab log entry: `O=C1Nc2ccccc2/C1=C1\CCc2cc(O)ccc21` — outcome as called in the assay?
-1

Lab log entry: `Cn1c(=O)c(Oc2ccc(F)cc2)cc2cnc(NC3CCOCC3)nc21` — outcome as called in the assay?
-1

Lab log entry: `Cn1cc(C2=C(c3cn(CCCSC(=N)N)c4ccccc34)C(=O)NC2=O)c2ccccc21` — outcome as called in the assay?
-1

Lab log entry: Nc1c(C(=O)c2cccc(C(O)CO)c2)cnn1-c1ccc(F)cc1 (configuration not stated) — outcome as called in the assay?
-1

Lab log entry: `Fc1ccc(Oc2nccc(-c3c(-c4ccc(F)cc4)ncn3C3CCNCC3)n2)cc1` — outcome as called in the assay?
-1

Lab log entry: `Cc1ccccc1-n1ncc(C(=O)c2ccccc2)c1N` — outcome as called in the assay?
-1

----------
I'd be grateful if you could share measured tube area decrease for these entries.
Assay: inhibition of endothelial tube formation, primary screen, imaging, VEGF stimulated, CD31 staining, tube area, NPC library (AID 1117340)
Conditions: VEGF-stimulated ADSC/ECFC co-culture, at 10 µM, stronger effect = higher value
Answers are plain numbers, in %.

Below: 6 molecules and their reported tube area decrease.
CCCCCCCCCCCC[N+](C)(C)Cc1ccccc1 | 108
CCC(C(=O)O)c1ccc(N2Cc3ccccc3C2=O)cc1 (stereo not drawn) | -24.8
CN1C(C(=O)Nc2ccccn2)=C(O)c2ccccc2S1(=O)=O | 3.1
Cc1cc(CC(=O)O)c(C)n1-c1ccc(Cl)cc1 | 1.3
COc1ccc(Cl)cc1C(=O)NCCc1ccc(S(=O)(=O)NC(=O)NC2CCCCC2)cc1 | 12
CC(CSC(=O)c1ccccc1)C(=O)N1C[C@@H](Sc2ccccc2)C[C@H]1C(=O)O (stereo partly drawn) | -27

For each entry beneath this line, provide reported tube area decrease.
1. C=Cc1c(C)c2cc3nc(cc4[nH]c(cc5nc(cc1[nH]2)C(C)=C5CCC(=O)O)c(CCC(=O)OC)c4C)[C@@]1(C)C3=CC=C(C(=O)OC)[C@@H]1C(=O)OC
2. Nc1nnnn1-c1ccccc1
3. CCN(CC)CCOC(=O)C1(C2CCCCC2)CCCCC1
4. COc1cc(NS(=O)(=O)c2ccc(N)cc2)nc(C)n1
5. CC(C)[N+](C)(C)CC(O)COc1cccc2ccccc12 (stereo not drawn)
6. CCN(CC)CCCC(C)Nc1ccnc2cc(Cl)ccc12 (stereo not drawn)
7. OCCN1CCN(CCCN2c3ccccc3Sc3ccc(Cl)cc32)CC1
8. COc1cc(C(=O)OC(COCCC(C)C)CN2CCOCC2)cc(OC)c1OC (stereo not drawn)

-206
-14.5
-0.9
-13
-21
23
104
0.7

----------
I'd be grateful if you could share measured red/green cell ratio (normalised) for these entries.
Assay: differential killing of epithelial or mesenchymal cells, primary screen, imaging, PC-3E GFP, TEM4-18 mCherry, co-culture (AID 1345086);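 note: normalised mesenchymal count divided by normalised epithelial count so high means epithelial killing; cells exposed to compound for 72 h before imaging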
Conditions: imaging cell counts, at 1 µM, actives lie on both sides, counts scaled to control wells, 1 = unselective
Numbers only.

Below: 2 compounds and their reported red/green cell ratio (normalised).
CC(=O)CCCCn1c(=O)c2c(ncn2C)n(C)c1=O | 1.09
CCN(CC)CCOC(=O)c1ccc(N)cc1 | 1.08

For each entry beneath this line, provide reported red/green cell ratio (normalised).
1. Cc1ccccc1C(OCCN(C)C)c1ccccc1 (stereo not given)
2. CC1=C(CC(=O)O)c2cc(F)ccc2/C1=C\c1ccc(S(C)=O)cc1 (stereo not given)
3. CCCCCN=C(N)N/N=C/c1c[nH]c2ccc(OC)cc12
4. O=c1[nH]cnc2[nH]ncc12
5. C[C@@H]1CC(=O)NN=C1c1ccc(NN=C(C#N)C#N)cc1
6. CC(N=C(NC#N)Nc1ccncc1)C(C)(C)C (stereo not given)

[1.09, 1.2, 1.12, 1.08, 1.17, 1.42]

For each entry beneath this line, provide reported red/green cell ratio (normalised).
1. O=C(CCCN1CC=C(n2c(=O)[nH]c3ccccc32)CC1)c1ccc(F)cc1
2. CCc1cc(C(N)=S)ccn1

[0.96, 0.96]
